tested on: SW-620; assay: NCI 60 cell line five dose, Colon Cancer
QUANTITY_NAME: GI50

Recorded results for 2 molecules are shown here.
| MOLECULE | QUANTITY_NAME | REPORTED_MEASUREMENT |
| --- | --- | --- |
| C=C1C(=O)O[C@H]2[C@H]1CC/C(COC(=O)NCCCCNC(=O)OC/C1=C/CC[C@@]3(C)O[C@H]3[C@H]3OC(=O)C(=C)[C@@H]3CC1)=C\CC[C@@]1(C)O[C@@H]21 [JVM 3-54] | GI50 | 0.586 µM |
| C=C1C(=O)O[C@H]2[C@H]1CC/C(COC(=O)CCC(=O)NCCCCCCCCNC(=O)CCC(=O)OC/C1=C/CC[C@@]3(C)O[C@H]3[C@H]3OC(=O)C(=C)[C@@H]3CC1)=C\CC[C@@]1(C)O[C@@H]21 [JVM 2-87] | GI50 | 1.22 µM |

Please examine the following record next.
Prompt line: Hi! What's the reported GI50 for C=C1C(=O)O[C@H]2[C@H]1CC/C(COC(=O)CCC(=O)NCCCCCCCCCNC(=O)CCC(=O)OC/C1=C/CC[C@@]3(C)O[C@H]3[C@H]3OC(=O)C(=C)[C@@H]3CC1)=C\CC[C@@]1(C)O[C@@H]21 [JVM 2-92] on SW-620?
Response line: 0.54 µM

====

Would you mind telling me the reported GI50 of each entry?
system: LOX IMVI; assay: NCI 60 cell line five dose, Melanoma
Give bare numbers, in nM.

Recorded results for 2 compounds are shown here.
| ITEM_SMILES | UNIT_ABBREVIATION | REPORTED_MEASUREMENT |
| --- | --- | --- |
| C=C1C(=O)O[C@H]2[C@H]1CC/C(COC(=O)NCCCCNC(=O)OC/C1=C/CC[C@@]3(C)O[C@H]3[C@H]3OC(=O)C(=C)[C@@H]3CC1)=C\CC[C@@]1(C)O[C@@H]21 | nM | 519 |
| C=C1C(=O)O[C@H]2[C@H]1CC/C(COC(=O)NCCCCCNC(=O)OC/C1=C/CC[C@@]3(C)O[C@H]3[C@H]3OC(=O)C(=C)[C@@H]3CC1)=C\CC[C@@]1(C)O[C@@H]21 | nM | 460 |

Prompt line: Given the entry C=C1C(=O)O[C@H]2[C@H]1CC/C(COC(=O)CCC(=O)NCCCCCCCCCNC(=O)CCC(=O)OC/C1=C/CC[C@@]3(C)O[C@H]3[C@H]3OC(=O)C(=C)[C@@H]3CC1)=C\CC[C@@]1(C)O[C@@H]21 , report its measured GI50.
Response line: 370
